The reported measurements were obtained from the supplement of paper PMC10567573.

B1: BTBD1 (parent)
chain: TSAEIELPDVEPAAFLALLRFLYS

- Variants of: B1
- protocol-summary: protein stability index of a GFP-peptide fusion (GPS, HEK-293T) (PSI 1-6); higher = more stable;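 note: lentivirally expressed fusions sorted by FACS into six bins by GFP to DsRed ratio, PSI derived from sequencing read proportions per bin multiplied by bin number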
- study-conditions: c terminus: a fixed tail appended
Classify by measured protein stability index: MET if it is equal to or exceeds 2, NOT MET if it is smaller.

| chain | class-label |
| --- | --- |
| TSAKIELPDVEPAAFLALLRFLYS [E4K] | NOT MET |
| TSAEIELPDVEPAAKLALLRFLYS [F15K] | NOT MET |
| TSAEIKLPDVEPAAFLALLRFLYS [E6K] | MET |

query: Can TSIEIELPDVEPAAFLALLRFLYS [A3I] be said to have protein stability index at or above 2?
result: MET
